Just for reference, the supplement of paper PMC10307832 is where these values come from.

System: NCI-H1915
Assay: relative viability (nuclei count vs DMSO), 5 days (fraction); higher = more cells survive
Details: first compound 0.4 µM
The following compounds are shown together with reported relative viability values.

- COMPOUND: "O=C(O)c1ccc(-c2c[nH]c3ncc(-c4ccccc4)cc23)cc1C1CCCC1 + NC(=O)Nc1cc(-c2cccc(F)c2)sc1C(=O)N[C@H]1CCCNC1 [AZD7762] (partner 0.2 µM)"
  relative viability: 0.77
- COMPOUND: "O=C(O)c1ccc(-c2c[nH]c3ncc(-c4ccccc4)cc23)cc1C1CCCC1 + COc1cc2c(Oc3ccc(NC(=O)C4(C(=O)Nc5ccc(F)cc5)CC4)cc3F)ccnc2cc1OCCCN1CCOCC1 [Foretinib] (partner 0.25 µM)"
  relative viability: 1.03
- COMPOUND: "O=C(O)c1ccc(-c2c[nH]c3ncc(-c4ccccc4)cc23)cc1C1CCCC1 + CCNC(=O)c1noc(-c2cc(C(C)C)c(O)cc2O)c1-c1ccc(CN2CCOCC2)cc1 [Luminespib] (partner 0.01 µM)"
  relative viability: 0.643
- COMPOUND: "O=C(O)c1ccc(-c2c[nH]c3ncc(-c4ccccc4)cc23)cc1C1CCCC1 + CC(C)C[C@H](NC(=O)[C@H](Cc1ccccc1)NC(=O)c1cnccn1)B(O)O [Bortezomib] (partner 0.002 µM)"
  relative viability: 0.957
- COMPOUND: "O=C(O)c1ccc(-c2c[nH]c3ncc(-c4ccccc4)cc23)cc1C1CCCC1 + CC(=O)c1c(C)c2cnc(Nc3ccc(N4CCNCC4)cn3)nc2n(C2CCCC2)c1=O [Palbociclib] (partner 0.5 µM)"
  relative viability: 0.452
- COMPOUND: "O=C(O)c1ccc(-c2c[nH]c3ncc(-c4ccccc4)cc23)cc1C1CCCC1 + CC(=O)Nc1cccc(-n2c(=O)n(C3CC3)c(=O)c3c(Nc4ccc(I)cc4F)n(C)c(=O)c(C)c32)c1 [Trametinib] (partner 0.02 µM)"
  relative viability: 0.287
- COMPOUND: "O=C(O)c1ccc(-c2c[nH]c3ncc(-c4ccccc4)cc23)cc1C1CCCC1 + COc1cccc2cc(-c3nc([C@H]4CC[C@H](C(=O)O)CC4)n4ncnc(N)c34)[nH]c12 [OSI-027] (partner 0.5 µM)"
  relative viability: 0.604

====

# Lookup of reported relative viability keyed by entry
Test system: NCI-H2228
Experiment: relative viability (nuclei count vs DMSO), 5 days (fraction); higher = more cells survive
Conditions: first compound 0.04 µM
PROPERTY LABEL: relative viability

- MOLECULE: "O=C(O)c1ccc(-c2c[nH]c3ncc(-c4ccccc4)cc23)cc1C1CCCC1 + Cc1cc(Nc2cc(N3CCN(C)CC3)nc(Sc3ccc(NC(=O)C4CC4)cc3)n2)n[nH]1 [Tozasertib] (partner 0.1 µM)"
  PROPERTY LABEL: "relative viability"
  DATA VALUE: 0.244
- MOLECULE: "O=C(O)c1ccc(-c2c[nH]c3ncc(-c4ccccc4)cc23)cc1C1CCCC1 + Cc1nc(NC(=O)N2CCC[C@H]2C(N)=O)sc1-c1ccnc(C(C)(C)C(F)(F)F)c1 [Alpelisib] (partner 2 µM)"
  PROPERTY LABEL: "relative viability"
  DATA VALUE: 0.755
- MOLECULE: "O=C(O)c1ccc(-c2c[nH]c3ncc(-c4ccccc4)cc23)cc1C1CCCC1 + N=C(N)NC(=N)NCCc1ccccc1 [Phenformin] (partner 250 µM)"
  PROPERTY LABEL: "relative viability"
  DATA VALUE: 0.37
- MOLECULE: "O=C(O)c1ccc(-c2c[nH]c3ncc(-c4ccccc4)cc23)cc1C1CCCC1 + O=C(CCCCCCC(=O)Nc1ccccc1)NO [Vorinostat] (partner 1 µM)"
  PROPERTY LABEL: "relative viability"
  DATA VALUE: 0.831
- MOLECULE: "O=C(O)c1ccc(-c2c[nH]c3ncc(-c4ccccc4)cc23)cc1C1CCCC1 + CS(=O)(=O)N1CCN(Cc2cc3nc(-c4cccc5[nH]ncc45)nc(N4CCOCC4)c3s2)CC1 [Pictilisib] (partner 1 µM)"
  PROPERTY LABEL: "relative viability"
  DATA VALUE: 0.58

====

Measured relative viability values are reported for all entries that follow.
Test system: 201T
Test: relative viability (nuclei count vs DMSO), 5 days (fraction); higher = more cells survive
Settings: first compound 0.1 µM
PROPERTY LABEL: relative viability

- COMPOUND: "NC(=O)Nc1cc(-c2cccc(F)c2)sc1C(=O)N[C@H]1CCCNC1 [AZD7762] + C[C@]1(O)C[C@@H](c2nc(-c3ccc4ccc(-c5ccccc5)nc4c3)c3c(N)nccn32)C1 [Linsitinib] (partner 1 µM)"
  TARGET OR SYSTEM: "201T"
  PROPERTY LABEL: "relative viability"
  DATA VALUE: 1.1
- COMPOUND: "NC(=O)Nc1cc(-c2cccc(F)c2)sc1C(=O)N[C@H]1CCCNC1 [AZD7762] + CS(=O)(=O)N1CCN(Cc2cc3nc(-c4cccc5[nH]ncc45)nc(N4CCOCC4)c3s2)CC1 [Pictilisib] (partner 1 µM)"
  TARGET OR SYSTEM: "201T"
  PROPERTY LABEL: "relative viability"
  DATA VALUE: 0.668
- COMPOUND: "NC(=O)Nc1cc(-c2cccc(F)c2)sc1C(=O)N[C@H]1CCCNC1 [AZD7762] + CC(=O)c1c(C)c2cnc(Nc3ccc(N4CCNCC4)cn3)nc2n(C2CCCC2)c1=O [Palbociclib] (partner 0.5 µM)"
  TARGET OR SYSTEM: "201T"
  PROPERTY LABEL: "relative viability"
  DATA VALUE: 0.361
- COMPOUND: "NC(=O)Nc1cc(-c2cccc(F)c2)sc1C(=O)N[C@H]1CCCNC1 [AZD7762] + Cc1nc(Nc2ncc(C(=O)Nc3c(C)cccc3Cl)s2)cc(N2CCN(CCO)CC2)n1 [Dasatinib] (partner 0.075 µM)"
  TARGET OR SYSTEM: "201T"
  PROPERTY LABEL: "relative viability"
  DATA VALUE: 0.602

====

Test system: NCI-H596
Assay: relative viability (nuclei count vs DMSO), 5 days (fraction); higher = more cells survive
Details: first compound 0.1265 µM
Below, each entry is listed alongside its reported relative viability.

- MOLECULE: "O=C(O)c1ccc(-c2c[nH]c3ncc(-c4ccccc4)cc23)cc1C1CCCC1 + C[C@@H](Oc1cc(-c2cnn(C3CCNCC3)c2)cnc1N)c1c(Cl)ccc(F)c1Cl [Crizotinib] (partner 1 µM)"
  relative viability: 1.09
- MOLECULE: "O=C(O)c1ccc(-c2c[nH]c3ncc(-c4ccccc4)cc23)cc1C1CCCC1 + COc1cccc2cc(-c3nc([C@H]4CC[C@H](C(=O)O)CC4)n4ncnc(N)c34)[nH]c12 [OSI-027] (partner 0.5 µM)"
  relative viability: 0.733
- MOLECULE: "O=C(O)c1ccc(-c2c[nH]c3ncc(-c4ccccc4)cc23)cc1C1CCCC1 + O=C(CCCCCCC(=O)Nc1ccccc1)NO [Vorinostat] (partner 1 µM)"
  relative viability: 0.657
- MOLECULE: "O=C(O)c1ccc(-c2c[nH]c3ncc(-c4ccccc4)cc23)cc1C1CCCC1 + Cc1nc(Nc2ncc(C(=O)Nc3c(C)cccc3Cl)s2)cc(N2CCN(CCO)CC2)n1 [Dasatinib] (partner 0.075 µM)"
  relative viability: 0.572

====

Tested on: NCI-H2126
Experiment: relative viability (nuclei count vs DMSO), 5 days (fraction); higher = more cells survive
Conditions: first compound 0.08 µM
PROPERTY LABEL: relative viability

- MOLECULE: "Oc1nc(-c2ccc(C(F)(F)F)cc2)nc2c1CSCC2 [XAV939] + NC(=O)Nc1cc(-c2cccc(F)c2)sc1C(=O)N[C@H]1CCCNC1 [AZD7762] (partner 0.2 µM)"
  DATA VALUE: 1.04
- MOLECULE: "C=C1C(=O)O[C@@H](CCCCCCCC)[C@@H]1C(=O)O [C-75] + O=C(c1cc(Cc2n[nH]c(=O)c3ccccc23)ccc1F)N1CCN(C(=O)C2CC2)CC1 [Olaparib] (partner 8 µM)"
  DATA VALUE: 0.881
- MOLECULE: "C=C1C(=O)O[C@@H](CCCCCCCC)[C@@H]1C(=O)O [C-75] + N=C(N)NC(=N)NCCc1ccccc1 [Phenformin] (partner 250 µM)"
  DATA VALUE: 0.505

====

Test system: NCI-H661
Experiment: relative viability (nuclei count vs DMSO), 5 days (fraction); higher = more cells survive
Details: first compound 2.53 µM
PROPERTY LABEL: relative viability

- MOLECULE: "C=C1C(=O)O[C@@H](CCCCCCCC)[C@@H]1C(=O)O [C-75] + Cc1nc(NC(=O)N2CCC[C@H]2C(N)=O)sc1-c1ccnc(C(C)(C)C(F)(F)F)c1 [Alpelisib] (partner 2 µM)"
  DATA VALUE: 0.409
- MOLECULE: "C=C1C(=O)O[C@@H](CCCCCCCC)[C@@H]1C(=O)O [C-75] + CC(C)C[C@H](NC(=O)[C@H](Cc1ccccc1)NC(=O)c1cnccn1)B(O)O [Bortezomib] (partner 0.002 µM)"
  DATA VALUE: 0.973
- MOLECULE: "Oc1nc(-c2ccc(C(F)(F)F)cc2)nc2c1CSCC2 [XAV939] + Cc1nc(NC(=O)N2CCC[C@H]2C(N)=O)sc1-c1ccnc(C(C)(C)C(F)(F)F)c1 [Alpelisib] (partner 2 µM)"
  DATA VALUE: 0.492
